assay_comment: basal S. cerevisiae growth modulation, no modifier, primary screen, OD600, strain BY4716, 24 h, basal condition (AID 1173)
experimental_context: OD600, 24 h, called active from +8 up or from −8 down
Active and inactive are the calls of the source.
Outcome codes: active, inactive

1. COc1cc2c(cc1O)C=[N+](Cc1cccc(OC(F)(F)F)c1)CC2 : inactive
2. COCC(=C=CC[C@H](O)c1ccccc1OCCO)C[C@H](O)c1cc(Cl)cc(Cl)c1O : active
3. Cc1ccc(S[C@]2(C(=O)NCC(F)(F)F)CC(=O)N(C(C)C)[C@@H]2c2ccc(CO)cc2I)cc1 : inactive
4. C=CCOC(=O)[C@H]1[C@@H]2C(=O)O[C@@H](c3ccccc3)[C@@H](c3ccccc3)N2[C@@H](c2ccc(OCCOC(=O)[C@@H]3C[C@@H]4C(=O)N[C@@H](CCCC[N+](C)(C)C)C(=O)N4[C@@H]3c3ccc(O)cc3)cc2)[C@]12C(=O)Nc1ccccc12 : inactive
5. COC(=O)[C@@]1(Cc2ccc(OC)cc2)[C@H]2c3cc(C(=O)N4CCCC4)n(Cc4ccc(OC)c(OC)c4)c3C[C@H]2CN1C(=O)c1ccccc1 : inactive
6. C=C(C)C1C(=C)CN([C@H](CO)c2ccccc2)C1=O (some centres not stated) : inactive
7. CC(=O)NCCCC[C@@H]1NC(=O)[C@@H]2C[C@H](C(=O)NCCCCN(C)C)[C@H](c3cccc(OCCO)c3)N2C1=O : inactive

====

assay_comment: fission yeast growth modulation, primary screen, strain 972, OD600, 24 h, no modulator (AID 1090);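 also: basal condition with compound alone and no growth modifier present; test concentration not given here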
experimental_context: S. pombe 972 growth, higher = more signal, called active from +8 up or from −8 down
The source made the active and inactive calls.
recorded_metric: z-score

1) COc1ccc(C(O)C2C=CC3C(=O)NC(=O)C3N2Nc2ccccn2)c2ccccc12 (centres undefined) : -0.0861 (inactive)
2) COCCOC(=O)N1C(=O)[C@@]2(c3cc(C#CCCO)ccc31)[C@H](C(=O)N1CCc3cc(OC)c(OC)cc3C1)[C@H]1C(=O)O[C@H](c3ccccc3)[C@H](c3ccccc3)N1[C@@H]2c1ccc(O)cc1 : 0.0725 (inactive)
3) C=CCOC(=O)[C@@H]1[C@H]2C(=O)O[C@H](c3ccccc3)[C@H](c3ccccc3)N2[C@H](c2ccc(OCCOC(=O)[C@@H]3C[C@@H]4C(=O)N[C@@H](CCCCN(C)C)C(=O)N4[C@@H]3c3ccc(O)cc3)cc2)[C@@]12C(=O)Nc1ccc(I)cc12 : -0.858 (inactive)
4) CN(C)C(=O)[C@]1(Cc2ccccc2N=[N+]=[N-])N=C(c2ccc(OCCCO)cc2)O[C@@H]1c1ccccc1 : -2.29 (inactive)
5) COCCCNC(=O)C1N=C(c2ccc(OCCCO)cc2)N(c2ccccc2)O1 (centres undefined) : 0.42 (inactive)
6) COCCOC(=O)N1C(=O)[C@@]2(c3cc(C#CC4=CCCCC4)ccc31)[C@H](C(=O)Nc1nc3ccccc3s1)[C@H]1C(=O)O[C@H](c3ccccc3)[C@H](c3ccccc3)N1[C@@H]2c1ccc(OCCO)cc1 : 1.97 (inactive)
7) Cc1ccc(S[C@]2(C(=O)NC(C)C)CC(=O)N(Cc3ccccc3Cl)[C@@H]2c2ccc(CO)cc2I)cc1 : -1.98 (inactive)
8) [N-]=[N+]=NCc1ccccc1[C@@H]1OC(c2ccc(OCCCO)cc2)=N[C@]1(CCS(=O)(=O)c1ccccc1)C(=O)NCc1ccccc1 : 1.18 (inactive)
9) CCCN1C(=O)[C@]2(CCS(=O)(=O)c3ccccc3)N=C(c3ccc(OCCCO)cc3)O[C@@H]2c2ccccc21 : -0.0812 (inactive)
10) CN1C(=O)C2C=CC(C(O)c3cc(C(F)(F)F)cc(C(F)(F)F)c3)N(N3CCCCC3)C2C1=O (centres undefined) : 0.763 (inactive)
11) COc1cc2c(cc1O)C=[N+](Cc1cccc(OC(F)(F)F)c1)CC2 : -3.24 (inactive)
12) Cc1ccc(S[C@]2(C(=O)NCCN3CCOCC3)CC(=O)N(Cc3ccccc3)[C@@H]2c2ccc(CO)cc2I)cc1 : -3 (inactive)
13) O=C1c2ccccc2[C@](Cc2ccccc2I)(C(=O)NC2CC2)[C@H](c2ccc(CO)cc2)N1C1CCCCC1 : 0.525 (inactive)
14) COC(=O)[C@@]1(Cc2ccc(F)cc2)[C@H]2c3cc(C(=O)N(C)C)n(CC4CC4)c3C[C@H]2CN1C(=O)c1ccccc1 : 0.877 (inactive)

====

assay_comment: HepG2 liver cancer cell viability effects, profiling panel, resazurin fluorescence, 24 h, PK04 Diversity Set (AID 1172); also: test concentration not given here
experimental_context: higher = more signal
Let's look at some molecules and their measured z-score.
recorded_metric: z-score

1) COCCOC(=O)N1C(=O)[C@@]2(c3cc(C#Cc4ccc(OC)cc4)ccc31)[C@H](c1ccccc1OCCO)N1[C@H](c3ccccc3)[C@H](c3ccccc3)OC(=O)[C@H]1[C@@H]2C(=O)N1CCN(c2ncccn2)CC1 : 0.214
2) COCCOC(=O)N1C(=O)[C@@]2(c3ccccc31)[C@H](c1ccc(O)cc1)N1[C@H](c3ccccc3)[C@H](c3ccccc3)OC(=O)[C@H]1[C@@H]2C(=O)NC[C@H](O)c1ccccc1 : -0.796
3) COC(=O)C(CC#Cc1ccc2c(c1)[C@]1(C(=O)N2)[C@H](c2ccc(O)cc2)N2[C@H](c3ccccc3)[C@H](c3ccccc3)OC(=O)[C@H]2[C@@H]1C(=O)Nc1nc2ccccc2s1)C(=O)OC : 0.0384
4) [N-]=[N+]=Nc1ccccc1C[C@@]1(C(=O)NCCN2CCOCC2)N=C(c2ccc(OCCCO)cc2)O[C@@H]1c1ccccc1 : -0.139
5) CN(C)CCCCCCNC(=O)[C@@H]1C[C@@H]2C(=O)N[C@@H](CCCCN)C(=O)N2[C@@H]1c1cccc(OCCO)c1 : -0.205
6) C=CCOC(=O)[C@H]1[C@@H]2C(=O)O[C@@H](c3ccccc3)[C@@H](c3ccccc3)N2[C@@H](c2ccc(OCCOC(=O)[C@@H]3C[C@@H]4C(=O)N[C@@H](CCCC[N+](C)(C)C)C(=O)N4[C@@H]3c3ccc(O)cc3)cc2)[C@]12C(=O)Nc1ccccc12 : 0.863

====

assay_comment: basal 3T3-L1 adipocyte mitochondrial potential changes, profiling panel, cell-based, JC-1 fluorescence, 3T3-L1 adipocytes, 24 h, 100 nL compound (AID 1168); also: test concentration not given here
experimental_context: JC-1 mitochondrial fluorescence, higher = more signal, called active from +8 up or from −8 down
Decision: z-score >= 1 yields True, all other cases yield False.

1) COc1cc2c(cc1OC)CN(C(=O)[C@H]1[C@@H]3C(=O)O[C@@H](c4ccccc4)[C@@H](c4ccccc4)N3[C@@H](c3ccc(O)cc3)[C@]13C(=O)Nc1ccc(C#CC4=CCCCC4)cc13)CC2 : True
2) CN1C(=O)C2C=CC(C(O)C3CCCCC3)N(Nc3ccc([N+](=O)[O-])cc3[N+](=O)[O-])C2C1=O (configuration not stated) : False
3) CN1C(=O)C2C=CC(C(O)c3ccc(I)cc3)N(N3CCCCC3)C2C1=O (configuration not stated) : False
4) O=C1c2ccccc2[C@](Cc2ccccc2I)(C(=O)NC2CC2)[C@H](c2ccc(CO)cc2)N1Cc1ccccc1 : False
5) C=CCN1C(=O)[C@@]2(O[C@@H](CCO)[C@H]([Si](C)(C)c3ccc(OC)cc3)[C@H]2C)c2cc(NC(=O)c3ccc(OC)cc3)ccc21 : True
6) O=C1C[C@]2(c3ccc([N+](=O)[O-])cc3)C(=O)N(CCN3CCOCC3)c3cc(CO)ccc3[C@H]2N1C1CCCCC1 : False

====

measured_on: Homeobox protein Hox-A13 (Mus musculus)
assay_comment: inhibitors of HoxA13-DNA binding, primary screen, biochemical, fluorescence polarization, labeled oligonucleotide (AID 1185)
experimental_context: 15 min, higher = more signal, called active from +8 up or from −8 down
Overview of recorded z-score for various compounds
recorded_metric: z-score

1. C[C@]1(C(=O)NC2CC2)c2ccccc2C(=O)N(Cc2cc(C(F)(F)F)cc(C(F)(F)F)c2)[C@H]1c1ccc(CO)cc1 : -3.26
2. Cc1ccc(S[C@]2(C(=O)NC(C)C)CC(=O)N(Cc3ccccc3Cl)[C@@H]2c2ccc(CO)cc2I)cc1 : -3.31
3. CC(C)(C)OC(=O)CC[C@]1(C(=O)NCC(O)CO)COC(c2ccc(OCCCO)cc2)=N1 (some centres undefined) : -3.95
4. CCOC(=O)[C@H]1C/C=C/C[C@H](C(=O)OCC)C(=O)O[C@H]2[C@@H](OC)O[C@H](CO)[C@@H](OC(=O)Nc3ccc(C#N)cc3)[C@@H]2OC1=O : -1.69

====

Listing: z-score of selected molecules
assay_comment: MM1S myeloma cell viability, profiling panel, resazurin fluorescence, basal, 24 h, PK04 Diversity Set (AID 1174);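 also: MM1S multiple myeloma cell line; test concentration not given here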
experimental_context: higher = more signal, called active from +8 up or from −8 down
recorded_metric: z-score

1. O=C1NC(=O)C2C1C=CC(C(O)c1cccc3ccccc13)N2Nc1ccccn1 (configuration not stated) : -1.74
2. CC1CC/C=C\[C@H]2OC34C=CCN(Cn5nnc6ccccc65)C(=O)[C@H]3N(C(CO)C(C)C)C(=O)[C@@H]4C2C(=O)O1 (some centres not stated) : -1.29
3. CCc1oc(CC[C@@H](CO)NC(=O)NCCn2cc(C3(O)CCCCC3)nn2)c(C(=O)OC)c1C(=O)OC : -0.658
4. CCOC(=O)C[C@H]1[C@H](OC(=O)c2cc3ccccc3oc2=O)[C@@H](NC(=O)C2CCCCC2)c2cc(OCCCO)ccc2N1C(=O)c1ccccc1 : 0.0797
5. COc1ccc(CCNC(=O)[C@@H]2c3ccccc3C(=O)N(C3Cc4ccccc4C3)[C@H]2c2ccc(CO)cc2)cc1 : -0.642
6. COc1ccc(C(=O)Nc2ccc(CN3C(=O)[C@@]4(O[C@@H](CC(=O)N5CCC[C@H]5CO)[C@H]([Si](C)(C)c5ccc(OC)cc5)[C@H]4C)c4ccccc43)cc2)cc1 : -0.675
7. C=CCN1C(=O)[C@@]2(O[C@@H](CCO)[C@H]([Si](C)(C)c3ccc(OC)cc3)[C@H]2C)c2cc(NC(=O)c3ccc(OC)cc3)ccc21 : -3.52
